Data origin: paper PMC3046295

- Target: HLA-DR0401 (DRA1*0101/DRB1*0401), soluble recombinant (human)
- Method notes: ELISA
Recorded endpoint: IC50 (µM)

- Binder: "GAGSLQPLALEGSLQKRGIV [preproinsulin p10]"
  IC50 / µM: 8.75

(P) YDLSYDTGDKALQCGRHVDV [GAD65p55]
(Q) RGIVEQCCTSICSLYQLENY [preproinsulin p12]
Exercise: # return whichever of P and Q has the smaller IC50 Let me know the label of the one you choose.
Solution: Q
(Q: 0.22 µM, P: 10 µM)
